- Target Or Test System: T1, cynomolgus IL-18BP (cynomolgus monkey)
- T1 construct: Generated in-house; also called cyIL-18BP; cyno IL-18BP
- T1 chain: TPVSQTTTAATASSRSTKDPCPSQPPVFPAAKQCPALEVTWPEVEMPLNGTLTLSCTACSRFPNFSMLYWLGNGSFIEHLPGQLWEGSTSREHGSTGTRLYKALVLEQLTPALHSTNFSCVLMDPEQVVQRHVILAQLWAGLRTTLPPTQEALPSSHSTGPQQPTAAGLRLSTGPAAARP
- Method Description: ratio of BLI KDs, cyno against human IL-18BP
In this section, each of the binders is paired with its reported Cyno/human.
Expressed in ratio, but write only the number.

Examples with answers:
Problem: # lookup: Cyno/human of SA301a (antibody, human IgG1, V domains shown, humanized; human IgG1 (suffix a), kappa; also called humanized SA44a) VH: QVQLQESGPGLVKPSQTLSLTCTVSGYSITSDYNSHWIRQPPGKGLEWIGYIHYSGSTNYNPSLKSRVTISRDTSKNQFSLKLSSVTAADTAVYYCARNYGSIYVNYFDYWGQGTLVTVSS VL: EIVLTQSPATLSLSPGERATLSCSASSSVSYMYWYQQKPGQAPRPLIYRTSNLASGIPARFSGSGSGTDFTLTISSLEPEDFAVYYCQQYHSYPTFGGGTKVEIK
Result: 0.47

Problem: # lookup: Cyno/human of SA302a (antibody, human IgG1, V domains shown, humanized; human IgG1 (suffix a), kappa) VH: QVQLQESGPGLVKPSQTLSLTCTVSGYSITSDYNAHWIRQPPGKGLEWIGYIHYSGSTNYNPSLKSRVTISRDTSKNQFSLKLSSVTAADTAVYYCARNYGSIYVNYFDYWGQGTLVTVSS VL: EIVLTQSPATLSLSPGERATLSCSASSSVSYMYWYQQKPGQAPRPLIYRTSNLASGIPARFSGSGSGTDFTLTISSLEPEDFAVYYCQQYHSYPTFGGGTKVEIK
Result: 0.45

Problem: # lookup: Cyno/human of SA338a (antibody, human IgG1, V domains shown, humanized; human IgG1 (suffix a), kappa) VH: QVQLQESGPGLVKPSQTLSLTCTVSGYSITQDYNAHWIRQPPGKGLEWIGYIHYSGQTYYNPSLKSRVTISRDTSKNQFSLKLSSVTAADTAVYYCARNFGSIYVNYFDYWGQGTLVTVSS VL: EIVLTQSPATLSLSPGERATLSCSASSSVSYMYWYQQKPGQAPRPLIYRTSNLASGIPARFSGSGSGTDFTLTISSLEPEDFAVYYCQLYHSYPTFGGGTKVEIK
Result: 0.67

API: the following record is the query input.
Problem: # lookup: Cyno/human of SA340a (antibody, human IgG1, V domains shown, humanized; human IgG1 (suffix a), kappa) VH: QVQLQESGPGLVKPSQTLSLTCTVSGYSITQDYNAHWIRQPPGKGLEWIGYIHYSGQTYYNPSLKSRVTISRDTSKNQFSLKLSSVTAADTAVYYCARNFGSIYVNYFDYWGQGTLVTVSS VL: EIVLTQSPATLSLSPGERATLSCSASSSVSYMYWYQQKPGQAPRPLIYRTSNLASGIPARFSGSGSGTDFTLTISSLEPEDFAVYYCQQYHSYPKFGGGTKVEIK
Result: 1.33
